Tested on: MCF7
Assay: Cytotoxicity against human MCF7 cells assessed as reduction in cell viability after 48 hrs by trypan blue exclusion assay
Assay type: functional, cell-based
Details: MCF7, 48 h
Below, each entry is listed alongside its reported pIC50.
Scale explanation: pIC50 corresponds to minus log10 of a concentration expressed in moles per litre.

Solved entries (count: 10):
# Smiles record, Measurement name, Observed measurement
data = [
    ("O=c1[nH]cc(F)c(=O)[nH]1", "pIC50", 4.97),
    ("Cc1ccc(-c2csc(NC(=O)COc3ccccc3C)n2)cc1", "pIC50", 4.27),
    ("O=C(COc1ccc(F)cc1)Nc1nc(-c2ccc(Cl)cc2)cs1", "pIC50", 4.45),
    ("Cc1ccc(-c2csc(NC(=O)COc3ccc(Cl)c(C)c3)n2)cc1", "pIC50", 4.38),
    ("CC(C)c1ccc(OCC(=O)Nc2nc(-c3ccc(Cl)cc3)cs2)c(C(C)C)c1", "pIC50", 4.39),
    ("O=C(COc1ccc(Br)cc1)Nc1nc(-c2ccc(Cl)cc2)cs1", "pIC50", 4.28),
    ("Cc1ccccc1OCC(=O)Nc1nc(-c2ccc(Cl)cc2)cs1", "pIC50", 4.20),
    ("Cc1ccc(-c2csc(NC(=O)COc3ccccc3C(C)C)n2)cc1", "pIC50", 4.31),
    ("O=C(COc1ccc(F)cc1F)Nc1nc(-c2ccc(Br)cc2)cs1", "pIC50", 4.28),
    ("Cc1ccccc1OCC(=O)Nc1nc(-c2ccc(Br)cc2)cs1", "pIC50", 4.40),
]

Entry `O=C(COc1ccc(Cl)cc1)Nc1nc(-c2ccc(Cl)cc2)cs1` : reported pIC50 = ?
4.36

Now give it for `O=C(COc1ccc(Br)cc1)Nc1nc(-c2ccc(Br)cc2)cs1` too.
4.35
